procedure-summary: solvent given as SMILES
condition-parameters: in CCC(C)=O
parameter-measured: solvation free energy, 298 K (kcal/mol)

- chemical-smiles: "CC(C)O"
  measured: -4.54
- chemical-smiles: "ClC(Cl)=C(Cl)Cl"
  measured: -4.98
- chemical-smiles: "C=CC(=C)C"
  measured: -3.27
- chemical-smiles: "CCCCCCCCCCCCCCO"
  measured: -12.6
- chemical-smiles: "CCCCCCCCO"
  measured: -8.2

---

procedure-summary: solvent given as SMILES
condition-parameters: in CN(C)C=O

- chemical-smiles: "FC(F)F"
  solvation free energy, 298 K: "-0.86 kcal/mol"
- chemical-smiles: "CC(C)C"
  solvation free energy, 298 K: "-1.32 kcal/mol"
- chemical-smiles: "CC1CCCCC1"
  solvation free energy, 298 K: "-3.52 kcal/mol"
- chemical-smiles: "C(=Cc1ccccc1)c1ccccc1"
  solvation free energy, 298 K: "-11.6 kcal/mol"
- chemical-smiles: "CCCl"
  solvation free energy, 298 K: "-2.74 kcal/mol"
- chemical-smiles: "COC(C)(C)C"
  solvation free energy, 298 K: "-3.18 kcal/mol"
- chemical-smiles: "C=CC=C"
  solvation free energy, 298 K: "-2.29 kcal/mol"
- chemical-smiles: "CCCCCCCCCCCCCCCCCCCCCCCCCCCC"
  solvation free energy, 298 K: "-19 kcal/mol"
- chemical-smiles: "CCCCCCCCCC"
  solvation free energy, 298 K: "-4.94 kcal/mol"
- chemical-smiles: "C=CCCCCCC"
  solvation free energy, 298 K: "-3.89 kcal/mol"
- chemical-smiles: "CC1CCCC1"
  solvation free energy, 298 K: "-3 kcal/mol"
- chemical-smiles: "CCCCCCCCCCCC"
  solvation free energy, 298 K: "-6.15 kcal/mol"
- chemical-smiles: "FCC(F)(F)F"
  solvation free energy, 298 K: "-2.21 kcal/mol"
- chemical-smiles: "CC(F)(F)Cl"
  solvation free energy, 298 K: "-2.09 kcal/mol"
- chemical-smiles: "CCN(CC)CC"
  solvation free energy, 298 K: "-3.57 kcal/mol"
- chemical-smiles: "CCC1CCCCC1"
  solvation free energy, 298 K: "-4.06 kcal/mol"
- chemical-smiles: "C1=CCCC1"
  solvation free energy, 298 K: "-2.93 kcal/mol"

---

procedure-summary: solvent given as SMILES
condition-parameters: in CCCCO

- chemical-smiles: "Cc1ccc2cc(C)ccc2c1"
  solvation free energy, 298 K (kcal/mol): -8.59
- chemical-smiles: "CCOc1ccc(NC(C)=O)cc1"
  solvation free energy, 298 K (kcal/mol): -13.2
- chemical-smiles: "CC(C)(C)Br"
  solvation free energy, 298 K (kcal/mol): -3.3
- chemical-smiles: "CCCl"
  solvation free energy, 298 K (kcal/mol): -2.5
- chemical-smiles: "CCC(C)(C)C"
  solvation free energy, 298 K (kcal/mol): -2.89
- chemical-smiles: "C=CC=C"
  solvation free energy, 298 K (kcal/mol): -2.11
- chemical-smiles: "CCC1CCCCC1"
  solvation free energy, 298 K (kcal/mol): -4.69
- chemical-smiles: "COc1ccccc1C(=O)O"
  solvation free energy, 298 K (kcal/mol): -11.1
- chemical-smiles: "C1COCCO1"
  solvation free energy, 298 K (kcal/mol): -4.56
- chemical-smiles: "O=C(O)c1ccccc1"
  solvation free energy, 298 K (kcal/mol): -9.58
- chemical-smiles: "Cc1cccnc1"
  solvation free energy, 298 K (kcal/mol): -6.41
- chemical-smiles: "C=CCCCC"
  solvation free energy, 298 K (kcal/mol): -3.22
- chemical-smiles: "O=C(O)c1ccc(O)cc1"
  solvation free energy, 298 K (kcal/mol): -11.4
- chemical-smiles: "Cc1c(C(=O)O)cc([N+](=O)[O-])cc1[N+](=O)[O-]"
  solvation free energy, 298 K (kcal/mol): -16.1
